Record form. Attribute: Ki. Fill in for each entry.
- System Tested: Sigma non-opioid intracellular receptor 1 (Cavia porcellus)
- Test Protocol: In vitro for binding affinity at sigma-1 receptor by measuring its ability to displace [3H](+)-pentazocine from guinea pig membranes
Kindly answer with a numeric value in nM, unit omitted.

Supply measured Ki of N#Cc1ccc(OCC2CCN(CCF)CC2)cc1 in your reply.
24.3

Return Ki (reported value) for this compound: Fc1ccc(CN2CCC(COc3c(F)c(F)c(F)c(F)c3F)CC2)cc1
3.6

Respond only with Ki recorded for FCCCN1CCC(COc2ccc(Br)cc2)CC1
0.38

Could you please provide reported Ki for N#Cc1ccc(OCC2CCN(Cc3ccccc3I)CC2)cc1 ? Thanks!
9.24

Give me measured Ki, please, for this compound: N#Cc1ccccc1CN1CCC(COc2ccc(I)cc2)CC1
10.5

Give me measured Ki, please, for this compound: Brc1cccc(OCC2CCN(CC3CC3)CC2)c1
0.88

----------
- System Tested: Sigma non-opioid intracellular receptor 1 (Cavia porcellus) (UniProt Q60492)
- Sequence (Q60492 whole entry, looked up): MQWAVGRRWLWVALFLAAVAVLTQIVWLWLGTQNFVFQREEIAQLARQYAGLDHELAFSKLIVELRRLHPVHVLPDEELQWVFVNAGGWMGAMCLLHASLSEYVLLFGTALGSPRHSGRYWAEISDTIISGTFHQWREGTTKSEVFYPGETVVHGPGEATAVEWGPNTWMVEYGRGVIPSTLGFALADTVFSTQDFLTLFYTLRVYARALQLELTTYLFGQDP
- Test Protocol: Receptor binding affinity against Sigma-1 receptor from guinea pig membranes
Measure Name: pKi
For clarity, pKi is expressed as the negative log10 of concentration in mol/L.

Return pKi for the following compound: O=[N+]([O-])c1ccc(OCC2CCN(Cc3ccc(F)cc3)CC2)cc1
8.92

----------
Exercise: for every item that follows, state its recorded pKi.
- System Tested: Sigma non-opioid intracellular receptor 1 (Cavia porcellus) (UniProt Q60492)
- Test Protocol: In vitro for binding affinity at sigma-1 receptor by measuring its ability to displace [3H](+)-pentazocine from guinea pig membranes
Please treat pKi as minus the base-10 logarithm of the molar concentration.

Tell me pKi reported for OCCN1CCC(COc2ccc(I)cc2)CC1
8.64

Retrieve pKi measured for FCCCN1CCC(COc2c(F)c(F)c(F)c(F)c2F)CC1 and print it.
8.77

Quick one: give measured pKi for Ic1ccc(OCC2CCN(CC3CC3)CC2)cc1
9.30

In one line, give reported pKi of the entry Fc1cccc(CN2CCC(COc3c(F)c(F)c(F)c(F)c3F)CC2)c1 .
8.48

Report measured pKi; entry is FCCN1CCC(COc2ccc(I)cc2)CC1
9.08

Tell me its pKi given N#Cc1ccc(OCC2CCN(Cc3ccccc3Br)CC2)cc1 as the entry.
8.69

Identify measured pKi associated with Brc1ccc(OCC2CCN(CC3CC3)CC2)cc1
9.22

Provide only the value of recorded pKi for N#Cc1ccc(OCC2CCN(CCCF)CC2)cc1
8.37

Annotate the compound N#Cc1cccc(CN2CCC(COc3ccc(I)cc3)CC2)c1 with its measured pKi.
8.54

Find the measured pKi of N#Cc1ccc(OCC2CCN(Cc3ccc(F)cc3)CC2)cc1 and report it.
9.12
